Test: melting temperature; fluorescence melt of hairpins on a sequencing array, two-state fit, raised by 9.35 °C to match UV melts
Conditions: sodium 0.088 M
Collected Tm values appear next to each entry.

seq text: GTTGTAGGAAACTACAGC (.(((((....))))).)
Tm: 42 °C
//
seq text: GGGCGTACGAAAGTACCC (((..(((....))))))
Tm: 50.2 °C
//
seq text: GAGCTTCCGAAAGGACTC (((..(((....))))))
Tm: 29.2 °C
//
seq text: GCGGAAACCGC ((((...))))
Tm: 52.9 °C
//
seq text: GTTGTTGAAAAACAAC ((((((....))))))
Tm: 51.9 °C
//
seq text: GAGAATGCGAAAGCACTC (((..(((....))))))
Tm: 32 °C
